Assay Target: P2Y12 receptor (Homo sapiens)
Construct: expressed in transfected cells
Sequence (Q9H244 whole entry): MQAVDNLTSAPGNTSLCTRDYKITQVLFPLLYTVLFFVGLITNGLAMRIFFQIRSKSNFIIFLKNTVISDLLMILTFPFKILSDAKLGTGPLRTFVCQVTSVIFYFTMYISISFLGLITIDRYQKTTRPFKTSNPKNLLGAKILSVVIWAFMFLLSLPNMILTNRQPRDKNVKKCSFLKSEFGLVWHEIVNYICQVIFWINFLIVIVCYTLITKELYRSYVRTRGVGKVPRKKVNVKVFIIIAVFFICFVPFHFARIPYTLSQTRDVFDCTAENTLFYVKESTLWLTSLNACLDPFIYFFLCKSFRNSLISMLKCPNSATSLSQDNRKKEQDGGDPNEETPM
Test Protocol: Whole cell receptor binding assay, 2-MeS[3H]-ADP
Condition: HEK 293 cells stably transfected with P2Y12; 2-MeS[3H]-ADP 3 nM; 30 min at 37° C.; read-out: Inhibition of Receptor Binding (IC50 μM)
Recorded Metric: IC50 (µM)

> print(dat)
                                   molecule  value.measured
1  CCCSc1nc(N[C@@H]2C[C@H]2c2ccccc2)c2nnn([C@@H]3C[C@H](Cn4cnnn4)[C@@H](O)[C@H]3O)c2n1 (mixture of isomers)           0.371

[1] CCCSc1nc(NCC(F)(F)F)c2nnn([C@@H]3C[C@H](c4nnc(C)[nH]4)[C@@H](O)[C@H]3O)c2n1
[2] CCCSc1nc(N[C@@H]2C[C@H]2c2ccccc2)c2nnn([C@@H]3C[C@H](c4nnn[nH]4)[C@@H](O)[C@H]3O)c2n1 (mixture of isomers) [Cpd 1]
Field: entry with larger IC50 (options 1 / 2 ). Respond with the label that goes with your answer.
1
(1: 6.2 µM, 2: 0.0043 µM)
